test-target: Poly [ADP-ribose] polymerase 1 (Homo sapiens, UniProt P09874)
Sequence (P09874 whole entry): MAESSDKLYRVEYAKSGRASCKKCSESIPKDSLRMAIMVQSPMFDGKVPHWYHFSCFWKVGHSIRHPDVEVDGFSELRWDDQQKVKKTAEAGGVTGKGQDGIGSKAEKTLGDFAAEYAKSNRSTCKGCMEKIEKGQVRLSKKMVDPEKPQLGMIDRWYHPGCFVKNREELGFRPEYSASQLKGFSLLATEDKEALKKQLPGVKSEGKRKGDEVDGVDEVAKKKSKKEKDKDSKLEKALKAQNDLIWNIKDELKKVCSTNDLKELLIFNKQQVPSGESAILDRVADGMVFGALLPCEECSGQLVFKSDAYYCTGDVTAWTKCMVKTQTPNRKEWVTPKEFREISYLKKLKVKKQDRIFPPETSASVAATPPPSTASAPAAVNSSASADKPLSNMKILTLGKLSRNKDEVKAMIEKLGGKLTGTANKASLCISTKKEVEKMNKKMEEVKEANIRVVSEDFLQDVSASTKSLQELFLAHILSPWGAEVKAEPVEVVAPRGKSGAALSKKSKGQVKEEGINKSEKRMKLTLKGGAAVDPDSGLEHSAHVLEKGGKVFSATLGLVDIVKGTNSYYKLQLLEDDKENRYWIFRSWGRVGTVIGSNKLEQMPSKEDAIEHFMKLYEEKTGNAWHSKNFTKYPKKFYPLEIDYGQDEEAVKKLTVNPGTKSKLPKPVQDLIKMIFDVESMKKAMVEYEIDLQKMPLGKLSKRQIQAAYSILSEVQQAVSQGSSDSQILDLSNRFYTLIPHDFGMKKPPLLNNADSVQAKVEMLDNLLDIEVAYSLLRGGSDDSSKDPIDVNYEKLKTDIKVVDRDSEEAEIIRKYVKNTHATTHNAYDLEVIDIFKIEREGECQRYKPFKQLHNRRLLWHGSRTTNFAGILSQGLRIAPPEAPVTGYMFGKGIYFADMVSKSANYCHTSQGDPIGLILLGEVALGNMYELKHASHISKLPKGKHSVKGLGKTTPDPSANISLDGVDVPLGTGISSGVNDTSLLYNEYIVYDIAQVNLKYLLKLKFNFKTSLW
assay-explanation: Inhibition of recombinant human full length C-terminal His-tagged PARP1 expressed in Sf9 insect cells preincubated for 15 mins followed by NAD+ addition and measured after 40 mins by fluorescence based assay
experimental-readout: IC50

COc1cc(O)cc(C)c1-c1cc(O)cc2cc3c(c(O)c12)C(=O)c1c(cc(O)c(Cl)c1O)C3(C)C : 15.4 µM

Query :: Lab note: Poly [ADP-ribose] polymerase 1 (Homo sapiens, UniProt P09874) assay, enter IC50 for COc1cc(O)c(Cl)c(C)c1-c1cc(O)c(Cl)c2cc3c(c(O)c12)C(=O)c1c(O)c(Cl)c(O)c(Cl)c1C3(C)C here
Result :: 5.88 µM

Query :: Lab note: Poly [ADP-ribose] polymerase 1 (Homo sapiens, UniProt P09874) assay, enter IC50 for COc1c(Cl)c(O)c(Cl)c(C)c1-c1cc(O)c(Cl)c2cc3c(c(O)c12)C(=O)c1c(O)c(Cl)c(O)c(Cl)c1C3(C)C here
Result :: 1.82 µM

Query :: Lab note: Poly [ADP-ribose] polymerase 1 (Homo sapiens, UniProt P09874) assay, enter IC50 for COc1cc(O)c(Cl)c(C)c1-c1cc(O)c(Br)c2cc3c(c(O)c12)C(=O)c1c(O)cc(O)cc1C3(C)C here
Result :: 4.59 µM

Query :: Lab note: Poly [ADP-ribose] polymerase 1 (Homo sapiens, UniProt P09874) assay, enter IC50 for COc1cc(O)c(Cl)c(C)c1-c1cc(O)cc2cc3c(c(O)c12)C(=O)c1c(O)cc(O)cc1C3(C)C here
Result :: 4.86 µM

Query :: Lab note: Poly [ADP-ribose] polymerase 1 (Homo sapiens, UniProt P09874) assay, enter IC50 for COc1cc(O)c(Cl)c(C)c1-c1cc(O)cc2cc3c(c(O)c12)C(=O)c1c(O)c(Cl)c(O)c(Cl)c1C3(C)C here
Result :: 0.95 µM

Query :: Lab note: Poly [ADP-ribose] polymerase 1 (Homo sapiens, UniProt P09874) assay, enter IC50 for COc1cc(O)c(Cl)c(C)c1-c1cc(O)cc2cc3c(c(O)c12)C(=O)c1c(cc(O)c(Cl)c1O)C3(C)C here
Result :: 8.84 µM

Query :: Lab note: Poly [ADP-ribose] polymerase 1 (Homo sapiens, UniProt P09874) assay, enter IC50 for COc1cc(O)c(Cl)c(C)c1-c1cc(O)c(Cl)c2cc3c(c(O)c12)C(=O)c1c(cc(O)c(Cl)c1O)C3(C)C here
Result :: 6.56 µM
